- test: activity coefficient (dimensionless); of the first substance listed, at infinite dilution; xn = mol fraction of the nth substance listed
- test-settings: 338.15 K; 101.33 kPa; Liquid; Chromatography; x1 = 0
Field: activity coefficient. Provide a value for each of the molecules that follow.
Number only, please.

Would you kindly share the measured activity coefficient for CCC(=O)CC [pentan-3-one] + CCCCCCCCCCCCCC[P+](CCCCCC)(CCCCCC)CCCCCC.N#CC(=C=[N-])C#N ? 0.451

Would you kindly share the measured activity coefficient for CCO [ethanol] + CCCCCCCCCCCCCC[P+](CCCCCC)(CCCCCC)CCCCCC.N#CC(=C=[N-])C#N ? 0.471

Would you kindly share the measured activity coefficient for c1ccsc1 [thiophene] + CCCCCCCCCCCCCC[P+](CCCCCC)(CCCCCC)CCCCCC.N#CC(=C=[N-])C#N ? 0.429

Would you kindly share the measured activity coefficient for Cc1ccc(C)cc1 [1,4-dimethylbenzene] + CCCCCCCCCCCCCC[P+](CCCCCC)(CCCCCC)CCCCCC.N#CC(=C=[N-])C#N ? 0.742

Would you kindly share the measured activity coefficient for CC(C)O [propan-2-ol] + CCCCCCCCCCCCCC[P+](CCCCCC)(CCCCCC)CCCCCC.N#CC(=C=[N-])C#N ? 0.507

Would you kindly share the measured activity coefficient for C#CCCCCC [1-heptyne] + CCCCCCCCCCCCCC[P+](CCCCCC)(CCCCCC)CCCCCC.N#CC(=C=[N-])C#N ? 0.982

Would you kindly share the measured activity coefficient for C1CCCC1 [cyclopentane] + CCCCCCCCCCCCCC[P+](CCCCCC)(CCCCCC)CCCCCC.N#CC(=C=[N-])C#N ? 1

Would you kindly share the measured activity coefficient for CCCO [propan-1-ol] + CCCCCCCCCCCCCC[P+](CCCCCC)(CCCCCC)CCCCCC.N#CC(=C=[N-])C#N ? 0.437

Would you kindly share the measured activity coefficient for C=C(C)c1ccccc1 [(1-methylethenyl)benzene] + CCCCCCCCCCCCCC[P+](CCCCCC)(CCCCCC)CCCCCC.N#CC(=C=[N-])C#N ? 0.64

Would you kindly share the measured activity coefficient for Cc1cccc(C)c1 [1,3-dimethylbenzene] + CCCCCCCCCCCCCC[P+](CCCCCC)(CCCCCC)CCCCCC.N#CC(=C=[N-])C#N ? 0.74

Would you kindly share the measured activity coefficient for CCCCCCCCC [nonane] + CCCCCCCCCCCCCC[P+](CCCCCC)(CCCCCC)CCCCCC.N#CC(=C=[N-])C#N ? 2.67

Would you kindly share the measured activity coefficient for CCC(C)(C)C [2,2-dimethylbutane] + CCCCCCCCCCCCCC[P+](CCCCCC)(CCCCCC)CCCCCC.N#CC(=C=[N-])C#N ? 1.87

Would you kindly share the measured activity coefficient for C#CCCCC [1-hexyne] + CCCCCCCCCCCCCC[P+](CCCCCC)(CCCCCC)CCCCCC.N#CC(=C=[N-])C#N ? 0.875

Would you kindly share the measured activity coefficient for C=CCCCCCCCC [1-decene] + CCCCCCCCCCCCCC[P+](CCCCCC)(CCCCCC)CCCCCC.N#CC(=C=[N-])C#N ? 2.37

Would you kindly share the measured activity coefficient for C=CCCCCCC [oct-1-ene] + CCCCCCCCCCCCCC[P+](CCCCCC)(CCCCCC)CCCCCC.N#CC(=C=[N-])C#N ? 1.85

Would you kindly share the measured activity coefficient for CCCC(C)=O [pentan-2-one] + CCCCCCCCCCCCCC[P+](CCCCCC)(CCCCCC)CCCCCC.N#CC(=C=[N-])C#N ? 0.459

Would you kindly share the measured activity coefficient for COC(C)(C)C [2-methoxy-2-methylpropane] + CCCCCCCCCCCCCC[P+](CCCCCC)(CCCCCC)CCCCCC.N#CC(=C=[N-])C#N ? 0.99

Would you kindly share the measured activity coefficient for CCCCCCC [heptane] + CCCCCCCCCCCCCC[P+](CCCCCC)(CCCCCC)CCCCCC.N#CC(=C=[N-])C#N ? 2.06

Would you kindly share the measured activity coefficient for C#CCCC [1-pentyne] + CCCCCCCCCCCCCC[P+](CCCCCC)(CCCCCC)CCCCCC.N#CC(=C=[N-])C#N ? 0.797

Would you kindly share the measured activity coefficient for CCCCC [pentane] + CCCCCCCCCCCCCC[P+](CCCCCC)(CCCCCC)CCCCCC.N#CC(=C=[N-])C#N ? 1.62

Would you kindly share the measured activity coefficient for CCC[N+](=O)[O-] [1-nitropropane] + CCCCCCCCCCCCCC[P+](CCCCCC)(CCCCCC)CCCCCC.N#CC(=C=[N-])C#N ? 0.557

###

- test: activity coefficient (dimensionless); of the first substance listed, at infinite dilution; xn = mol fraction of the nth substance listed
- test-settings: 368.15 K; 101.33 kPa; Liquid; Chromatography; x1 = 0
measurement-kind: activity coefficient
Number only, please.

Would you kindly share the measured activity coefficient for CC(C)(C)O [2-methylpropan-2-ol] + CCCCCCCCCCCCCC[P+](CCCCCC)(CCCCCC)CCCCCC.N#CC(=C=[N-])C#N ? 0.537

Would you kindly share the measured activity coefficient for O [water] + CCCCCCCCCCCCCC[P+](CCCCCC)(CCCCCC)CCCCCC.N#CC(=C=[N-])C#N ? 1.44

Would you kindly share the measured activity coefficient for C=C(C)c1ccccc1 [(1-methylethenyl)benzene] + CCCCCCCCCCCCCC[P+](CCCCCC)(CCCCCC)CCCCCC.N#CC(=C=[N-])C#N ? 0.751

Would you kindly share the measured activity coefficient for CCO [ethanol] + CCCCCCCCCCCCCC[P+](CCCCCC)(CCCCCC)CCCCCC.N#CC(=C=[N-])C#N ? 0.49

###

- test: activity coefficient (dimensionless); of the first substance listed, at infinite dilution; xn = mol fraction of the nth substance listed
- test-settings: 328.15 K; 101.33 kPa; Liquid; Chromatography; x1 = 0
Measured activity coefficient determines class: b0 (below 0.8), b1 (0.8 to below 1), b2 (1 or more)

The entry to classify is CC(C)CC(C)(C)C [2,2,4-trimethylpentane] + CCCCCCCCCCCCCC[P+](CCCCCC)(CCCCCC)CCCCCC.N#CC(=C=[N-])C#N ; which class holds it? b2

The entry to classify is C1CCCCC1 [cyclohexane] + CCCCCCCCCCCCCC[P+](CCCCCC)(CCCCCC)CCCCCC.N#CC(=C=[N-])C#N ; which class holds it? b2

The entry to classify is CCCCO [butan-1-ol] + CCCCCCCCCCCCCC[P+](CCCCCC)(CCCCCC)CCCCCC.N#CC(=C=[N-])C#N ; which class holds it? b0

The entry to classify is O [water] + CCCCCCCCCCCCCC[P+](CCCCCC)(CCCCCC)CCCCCC.N#CC(=C=[N-])C#N ; which class holds it? b2

The entry to classify is C#CCCCCC [1-heptyne] + CCCCCCCCCCCCCC[P+](CCCCCC)(CCCCCC)CCCCCC.N#CC(=C=[N-])C#N ; which class holds it? b1

The entry to classify is C=Cc1ccccc1 [styrene] + CCCCCCCCCCCCCC[P+](CCCCCC)(CCCCCC)CCCCCC.N#CC(=C=[N-])C#N ; which class holds it? b0

The entry to classify is C#CCCCC [1-hexyne] + CCCCCCCCCCCCCC[P+](CCCCCC)(CCCCCC)CCCCCC.N#CC(=C=[N-])C#N ; which class holds it? b1

The entry to classify is c1ccccc1 [benzene] + CCCCCCCCCCCCCC[P+](CCCCCC)(CCCCCC)CCCCCC.N#CC(=C=[N-])C#N ; which class holds it? b0

The entry to classify is C1CCCCCCC1 [cyclooctane] + CCCCCCCCCCCCCC[P+](CCCCCC)(CCCCCC)CCCCCC.N#CC(=C=[N-])C#N ; which class holds it? b2

###

- test: activity coefficient (dimensionless); of the first substance listed, at infinite dilution; xn = mol fraction of the nth substance listed
- test-settings: 368.15 K; 101.33 kPa; Liquid; Chromatography; x1 = 0
measurement-kind: activity coefficient

Would you kindly share the measured activity coefficient for CCCCCC [hexane] + CCCCCCCCCCCCCC[P+](CCCCCC)(CCCCCC)CCCCCC.N#CC(=C=[N-])C#N ? 1.88

Would you kindly share the measured activity coefficient for CC#N [acetonitrile] + CCCCCCCCCCCCCC[P+](CCCCCC)(CCCCCC)CCCCCC.N#CC(=C=[N-])C#N ? 0.672

Would you kindly share the measured activity coefficient for C=Cc1ccccc1 [styrene] + CCCCCCCCCCCCCC[P+](CCCCCC)(CCCCCC)CCCCCC.N#CC(=C=[N-])C#N ? 0.593

Would you kindly share the measured activity coefficient for Cc1ccc(C)cc1 [1,4-dimethylbenzene] + CCCCCCCCCCCCCC[P+](CCCCCC)(CCCCCC)CCCCCC.N#CC(=C=[N-])C#N ? 0.83

Would you kindly share the measured activity coefficient for Cc1ccccc1C [1,2-dimethylbenzene] + CCCCCCCCCCCCCC[P+](CCCCCC)(CCCCCC)CCCCCC.N#CC(=C=[N-])C#N ? 0.76

Would you kindly share the measured activity coefficient for CCCCO [butan-1-ol] + CCCCCCCCCCCCCC[P+](CCCCCC)(CCCCCC)CCCCCC.N#CC(=C=[N-])C#N ? 0.464
